- Run Description: amyloid nucleation score (Sup35N fusion, yeast selection) (log enrichment); library NNK2; higher = more nucleation; inactive = no reads after selection;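 further: zero at mode of non-aggregating sequences after 7 days selection at 30°C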
Examples of substances with documented amyloid nucleation score follow.
# respond with the number and nothing more

[Q] Item STFIMCDRTDPASIAIA has what recorded amyloid nucleation score?
[A] 0.6

[Q] Item SKFHIVIWSSAFFGCNCRLA has what recorded amyloid nucleation score?
[A] 6.78

[Q] Item AIQLCLWSKRSQGRWFTLPV has what recorded amyloid nucleation score?
[A] 0.82

[Q] Item RMVSYY has what recorded amyloid nucleation score?
[A] -0.474

[Q] Item RSHATFRSSSLIPGVEV has what recorded amyloid nucleation score?
[A] 0.409

[Q] Item HCGFDQVLEGLTLR has what recorded amyloid nucleation score?
[A] 0.097

[Q] Item HLCHLLRSEHCRNGGSEKSR has what recorded amyloid nucleation score?
[A] 1.61

[Q] Item FLIFVFLLYGPEMSDYCWTF has what recorded amyloid nucleation score?
[A] 0.14

Let us move to another entry and its amyloid nucleation score.
[Q] Item FCHCFRGYARDHHRMTQLGN has what recorded amyloid nucleation score?
[A] -0.674
